Tested on: A549 cells
method description: MTT cell viability, A549
test parameters: Homo sapiens, A549, 48 h, read-out: IC50 A549
readout label: pIC50
Formally, pIC50 is defined as -log10 of the concentration c, with c in mol/L.

For record CNC(=O)c1cc(Oc2ccc(NC(=O)Nc3ccc(Cl)c(C(F)(F)F)c3)cc2)ccn1 [Sorafenib, reference compound] the listed pIC50 is 5.13
